The measurements presented in this section are drawn from ChEMBL document CHEMBL4400528.

study system: Lysophosphatidylserine lipase ABHD12 (Mus musculus) (UniProt Q99LR1)
Sequence (whole entry): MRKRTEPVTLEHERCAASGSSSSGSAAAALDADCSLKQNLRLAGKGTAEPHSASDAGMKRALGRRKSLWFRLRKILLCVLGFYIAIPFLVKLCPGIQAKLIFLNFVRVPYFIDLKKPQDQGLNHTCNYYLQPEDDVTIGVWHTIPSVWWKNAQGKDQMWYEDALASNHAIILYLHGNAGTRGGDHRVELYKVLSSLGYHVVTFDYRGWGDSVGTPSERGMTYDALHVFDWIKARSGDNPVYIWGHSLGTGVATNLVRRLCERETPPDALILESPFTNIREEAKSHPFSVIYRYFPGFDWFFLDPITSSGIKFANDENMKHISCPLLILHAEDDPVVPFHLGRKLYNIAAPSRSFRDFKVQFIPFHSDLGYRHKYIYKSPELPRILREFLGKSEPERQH
assay procedure: Inhibition of JJH350 binding to ABHD12 in mouse brain membrane proteome at 2 uM after 20 mins by CuAAC based fluorescence scanning assay relative to control
Format: cell membranes
quantity name: inhibition (%)

# annotated cases, reported inhibition shown
{"molecule": "CN(C(=S)Nc1cccnc1)C1CCN(c2ncc(C(F)(F)F)cc2Cl)CC1", "study system": "Lysophosphatidylserine lipase ABHD12 (Mus musculus) (UniProt Q99LR1)", "inhibition [%]": 31}
{"molecule": "FC(F)(F)c1cnc(NCCCCCCNC(=S)Nc2cccnc2)c(Cl)c1", "study system": "Lysophosphatidylserine lipase ABHD12 (Mus musculus) (UniProt Q99LR1)", "inhibition [%]": 22}
{"molecule": "FC(F)(F)c1cnc(N2CCC(NC(=S)Nc3cnc4ccccc4c3)CC2)c(Cl)c1", "study system": "Lysophosphatidylserine lipase ABHD12 (Mus musculus) (UniProt Q99LR1)", "inhibition [%]": 0}
{"molecule": "FC(F)(F)c1cnc(N2CCC(NC(=S)N3CCCc4ccccc43)CC2)c(Cl)c1", "study system": "Lysophosphatidylserine lipase ABHD12 (Mus musculus) (UniProt Q99LR1)", "inhibition [%]": 0}
{"molecule": "FC(F)(F)c1cnc(N2CCCC(NC(=S)Nc3cccnc3)C2)c(Cl)c1 (stereo not given)", "study system": "Lysophosphatidylserine lipase ABHD12 (Mus musculus) (UniProt Q99LR1)", "inhibition [%]": 0}
{"molecule": "FC(F)(F)c1cnc(NCCCCCNC(=S)Nc2cccnc2)c(Cl)c1", "study system": "Lysophosphatidylserine lipase ABHD12 (Mus musculus) (UniProt Q99LR1)", "inhibition [%]": 54}
{"molecule": "FC(F)(F)c1cnc(N2CCCC(NC(=S)Nc3cccnc3)CC2)c(Cl)c1 (stereo not given)", "study system": "Lysophosphatidylserine lipase ABHD12 (Mus musculus) (UniProt Q99LR1)", "inhibition [%]": 9}
{"molecule": "FC(F)(F)c1cnc(NCCCNC(=S)Nc2cccnc2)c(Cl)c1", "study system": "Lysophosphatidylserine lipase ABHD12 (Mus musculus) (UniProt Q99LR1)", "inhibition [%]": 0}

(A) COc1ccc(NC(=S)NC2CCN(c3ncc(C(F)(F)F)cc3Cl)CC2)cn1
(B) FC(F)(F)c1cnc(N2CCC(NC(=S)Nc3cccnc3)CC2)c(Cl)c1
Would you let me know which has the greater inhibition value, A or B ? Write down the label attached to your selection. B
